Where these numbers come from: ChEMBL document CHEMBL1143603

Target or system: Liver carboxylesterase 1 (Oryctolagus cuniculus)
Sequence (P12337 whole entry): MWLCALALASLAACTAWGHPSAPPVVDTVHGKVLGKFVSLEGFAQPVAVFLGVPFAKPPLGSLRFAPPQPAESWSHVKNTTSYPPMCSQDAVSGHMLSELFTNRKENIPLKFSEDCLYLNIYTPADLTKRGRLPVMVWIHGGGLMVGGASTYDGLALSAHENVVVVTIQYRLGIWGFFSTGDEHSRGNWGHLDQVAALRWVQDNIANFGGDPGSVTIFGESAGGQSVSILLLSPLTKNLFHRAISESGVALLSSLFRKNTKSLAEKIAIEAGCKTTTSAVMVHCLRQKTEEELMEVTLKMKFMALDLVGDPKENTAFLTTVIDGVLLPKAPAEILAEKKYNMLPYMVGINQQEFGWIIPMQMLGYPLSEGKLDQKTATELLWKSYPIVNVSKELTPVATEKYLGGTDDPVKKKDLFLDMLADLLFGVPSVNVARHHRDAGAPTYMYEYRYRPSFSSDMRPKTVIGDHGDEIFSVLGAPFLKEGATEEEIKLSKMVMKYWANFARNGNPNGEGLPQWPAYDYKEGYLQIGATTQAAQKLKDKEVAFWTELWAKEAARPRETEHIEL
Assay comment: Inhibition constant against rabbit liver carboxylesterase (rCE) using nitrophenyl acetate (o-NPA) as substrate
Measured Ki accompanies every entry in the list below.

Here's what some known entries look like.
Compound	Ki
Cc1ccc(C(=O)C(=O)c2ccccc2)cc1[N+](=O)[O-]	0.0119 µM
O=C(c1ccccc1)c1ccccc1	> 100 µM
CC(=O)C(=O)c1ccccc1	4.93 µM
CC(=O)CCC(=O)c1ccccc1	> 100 µM
CC1CCCC(=O)C1=O (centres undefined)	> 100 µM
O=C(C(=O)c1ccc(C(=O)C(=O)c2ccccc2)cc1)c1ccccc1	0.0061 µM
CCCCC(=O)C(C)=O	> 100 µM
CC1CC(C)(C)CC(=O)C1=O (centres undefined)	> 100 µM

INPUT: Please look up its Ki: "[O-][S+](Cc1ccccc1)Cc1ccccc1"
OUTPUT: > 100 µM

INPUT: What about "O=S(=O)(Cc1ccccc1)c1ccccc1" ?
OUTPUT: > 100 µM

INPUT: What about "CN(C)c1ccc(C(=O)C(=O)c2ccc(N(C)C)cc2)cc1" ?
OUTPUT: 2.15 µM

INPUT: What about "CC1C(=O)CCC1=O" ?
OUTPUT: > 100 µM

INPUT: What about "O=C(O)c1ccc(C(=O)c2ccccc2)cc1" ?
OUTPUT: > 100 µM

INPUT: What about O=C(c1ccccc1)C(O)c1ccccc1 (centres undefined) ?
OUTPUT: > 100 µM

----------
Target or system: Liver carboxylesterase 1 (Homo sapiens, UniProt P23141)
Sequence (P23141 whole entry): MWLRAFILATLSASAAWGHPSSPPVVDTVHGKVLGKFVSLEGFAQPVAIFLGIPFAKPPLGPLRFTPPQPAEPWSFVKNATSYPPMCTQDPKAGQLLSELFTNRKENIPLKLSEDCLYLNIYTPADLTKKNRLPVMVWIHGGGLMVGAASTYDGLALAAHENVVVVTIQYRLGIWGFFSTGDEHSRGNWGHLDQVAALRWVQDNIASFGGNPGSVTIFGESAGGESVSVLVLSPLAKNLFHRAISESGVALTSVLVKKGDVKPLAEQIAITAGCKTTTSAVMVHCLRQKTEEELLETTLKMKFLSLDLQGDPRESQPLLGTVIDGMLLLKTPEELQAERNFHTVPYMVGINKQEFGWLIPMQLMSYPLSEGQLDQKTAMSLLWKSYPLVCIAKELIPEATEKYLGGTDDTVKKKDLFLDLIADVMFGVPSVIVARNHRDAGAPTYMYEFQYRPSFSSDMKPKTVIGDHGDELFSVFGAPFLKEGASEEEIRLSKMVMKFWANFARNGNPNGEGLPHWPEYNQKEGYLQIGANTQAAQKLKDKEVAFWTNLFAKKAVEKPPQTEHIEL
Assay comment: Inhibition constant against human liver carboxylesterase 1 (hCE1) using nitrophenyl acetate (o-NPA) as substrate
pKi: −log10 of the molar value.
Result type: pKi

Molecule	Result
O=C1C=CC(=O)C=C1	< 4.00
CCC(=O)C(C)=O	< 4.00

INPUT: Please look up its pKi: CC1NC(=O)C(=O)OC1C (stereo not given)
OUTPUT: < 4.00

INPUT: What about "O=C(CC(=O)c1ccccc1)c1ccccc1" ?
OUTPUT: 4.59

INPUT: What about "O=C(C(=O)c1ccc(Cl)cc1)c1ccc(Cl)cc1" ?
OUTPUT: 6.74

INPUT: What about "CC(=O)C(C)=O" ?
OUTPUT: < 4.00

INPUT: What about CC1CCCC(=O)C1=O (stereo not given) ?
OUTPUT: < 4.00

INPUT: What about CC1CCC(=O)C1=O (stereo not given) ?
OUTPUT: < 4.00

INPUT: What about "CC(=O)CCC(=O)c1ccccc1" ?
OUTPUT: < 4.00

INPUT: What about "O=C(c1ccccc1)c1ccccc1" ?
OUTPUT: < 4.00

INPUT: What about CN(C)c1ccc(C(O)C(=O)c2ccccc2)cc1 (stereo not given) ?
OUTPUT: < 4.00

INPUT: What about "[O-][S+](Cc1ccccc1)Cc1ccccc1" ?
OUTPUT: < 4.00

----------
Measured Ki accompanies every entry in the list below.
Target or system: Acetylcholinesterase (Homo sapiens, UniProt P22303)
Sequence (P22303 whole entry): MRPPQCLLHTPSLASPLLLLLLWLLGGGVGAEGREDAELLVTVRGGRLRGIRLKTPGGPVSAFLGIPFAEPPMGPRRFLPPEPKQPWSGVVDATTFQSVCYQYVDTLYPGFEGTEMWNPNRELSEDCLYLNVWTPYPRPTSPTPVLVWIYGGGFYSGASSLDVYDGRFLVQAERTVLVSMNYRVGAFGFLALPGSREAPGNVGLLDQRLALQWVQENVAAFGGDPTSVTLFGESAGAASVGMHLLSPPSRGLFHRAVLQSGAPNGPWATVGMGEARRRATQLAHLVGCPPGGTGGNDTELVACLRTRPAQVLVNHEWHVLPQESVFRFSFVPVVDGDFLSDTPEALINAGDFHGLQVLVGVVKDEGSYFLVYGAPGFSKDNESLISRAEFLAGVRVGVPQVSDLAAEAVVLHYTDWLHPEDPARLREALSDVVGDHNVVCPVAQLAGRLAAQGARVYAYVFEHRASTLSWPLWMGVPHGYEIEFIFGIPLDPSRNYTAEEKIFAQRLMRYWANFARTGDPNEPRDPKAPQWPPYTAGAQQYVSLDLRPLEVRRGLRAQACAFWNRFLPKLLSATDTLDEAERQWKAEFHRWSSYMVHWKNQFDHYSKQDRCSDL

Compound	Target or system	Ki
Oc1nc2cc(Cl)c(Cl)cc2nc1O [2,3-DIHYDROXY-6,7-DICHLOROQUINOXALINE]	Acetylcholinesterase (Homo sapiens, UniProt P22303)	> 100 µM

INPUT: Please look up its Ki: "CCCCC(=O)C(C)=O"
OUTPUT: > 100 µM

INPUT: What about "CCC(=O)C(C)=O" ?
OUTPUT: > 100 µM

INPUT: What about "O=C1C(=O)C(Cl)=C(Cl)C(Cl)=C1Cl" ?
OUTPUT: 1.67 µM

INPUT: What about CN(C)c1ccc(C(O)C(=O)c2ccccc2)cc1 (centres undefined) ?
OUTPUT: > 100 µM

INPUT: What about COc1ccc(C(=O)C(O)c2ccc(OC)cc2)cc1 (centres undefined) ?
OUTPUT: > 100 µM

INPUT: What about "CC(=O)CC(C)=O" ?
OUTPUT: > 100 µM

INPUT: What about "O=C(O)c1ccc(C(=O)c2ccccc2)cc1" ?
OUTPUT: > 100 µM

----------
A short record of pKi observed with Cocaine esterase (Homo sapiens, UniProt O00748) follows.
Sequence (O00748 whole entry): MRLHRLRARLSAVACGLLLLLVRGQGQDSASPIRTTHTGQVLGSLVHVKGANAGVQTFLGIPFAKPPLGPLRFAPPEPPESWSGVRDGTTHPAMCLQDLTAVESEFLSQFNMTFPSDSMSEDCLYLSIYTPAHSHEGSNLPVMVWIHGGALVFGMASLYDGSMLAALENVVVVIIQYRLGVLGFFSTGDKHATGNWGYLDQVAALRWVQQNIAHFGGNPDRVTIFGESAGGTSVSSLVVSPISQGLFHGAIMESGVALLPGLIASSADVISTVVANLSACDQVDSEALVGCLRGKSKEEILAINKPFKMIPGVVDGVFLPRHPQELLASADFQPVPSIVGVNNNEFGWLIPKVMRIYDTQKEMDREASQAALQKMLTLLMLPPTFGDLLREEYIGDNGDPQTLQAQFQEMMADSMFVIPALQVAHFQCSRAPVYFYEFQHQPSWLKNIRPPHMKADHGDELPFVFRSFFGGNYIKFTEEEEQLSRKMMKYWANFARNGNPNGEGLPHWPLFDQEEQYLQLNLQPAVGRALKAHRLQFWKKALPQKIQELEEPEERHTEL
pKi: −log10 of the molar value.

Here's what some known entries look like.
Compound	pKi
O=C1C=CC(=O)C=C1	< 4.00
CC1CCC(=O)C1=O (centres undefined)	< 4.00
O=S(=O)(Cc1ccccc1)c1ccccc1	< 4.00
CC1CC(C)(C)CC(=O)C1=O (centres undefined)	< 4.00
CC1C(=O)CCC1=O	< 4.00

INPUT: Return pKi measured with Cocaine esterase (Homo sapiens, UniProt O00748) given this compound: COc1ccc(C(=O)C(O)c2ccc(OC)cc2)cc1 (centres undefined)
OUTPUT: < 4.00

INPUT: What about "O=C1CCCCC1=O" ?
OUTPUT: < 4.00

INPUT: What about "CC1C(=O)CCCC1=O" ?
OUTPUT: < 4.00

INPUT: What about "O=S(=O)(Cc1ccccc1)Cc1ccccc1" ?
OUTPUT: < 4.00

INPUT: What about CC1CCCC(=O)C1=O (centres undefined) ?
OUTPUT: < 4.00

INPUT: What about "O=C1C(=O)C(Cl)=C(Cl)C(Cl)=C1Cl" ?
OUTPUT: 6.06

INPUT: What about "COC(OC)(C(=O)c1ccccc1)c1ccccc1" ?
OUTPUT: < 4.00

INPUT: What about "O=C(O)c1ccc(C(=O)c2ccccc2)cc1" ?
OUTPUT: < 4.00

INPUT: What about CC1NC(=O)C(=O)OC1C (centres undefined) ?
OUTPUT: < 4.00

----------
Target or system: Liver carboxylesterase 1 (Homo sapiens)
Assay comment: Inhibition constant against human liver carboxylesterase 1 using o-NPA (nitrophenyl acetate)
Measured pKi accompanies every entry in the list below.
Worth noting: pKi values are minus log10 of concentrations stated in mol/L.

1. O=C(C(=O)c1ccc(Cl)cc1)c1ccccc1 7.32
2. Cc1ccc(C(=O)C(=O)c2ccccc2)cc1C 7.00
3. O=C(C(=O)c1ccc(Cl)cc1)c1ccc(Cl)cc1 6.74

Turning to the following compound.
INPUT: Please look up its pKi: "Cc1ccc(C(=O)C(=O)c2ccccc2)cc1[N+](=O)[O-]"
OUTPUT: 6.53

----------
Target or system: UniProtKB P12337
Assay comment: Inhibition constant against rabbit liver carboxylesterase (rCE) using nitrophenyl acetate (o-NPA) as substrate
Measured Ki accompanies every entry in the list below.
Report the value in µM with no unit label.

Compound	Ki [µM]
COc1ccc(C(=O)C(O)c2ccc(OC)cc2)cc1 (stereo not drawn)	13.9
O=C1C(=O)C(Cl)=C(Cl)C(Cl)=C1Cl	1.03
O=C(C(=O)c1ccc(Br)cc1)c1ccc(Br)cc1	0.0041

INPUT: Please look up its Ki: "O=C(C(=O)c1ccc(Cl)cc1)c1ccccc1"
OUTPUT: 0.0239

INPUT: What about CC1CCC(=O)C1=O (stereo not drawn) ?
OUTPUT: 15.7

INPUT: What about "Cc1ccc(C(=O)C(=O)c2ccccc2)cc1C" ?
OUTPUT: 0.108

INPUT: What about "O=C(C(=O)c1ccc(Cl)cc1)c1ccc(Cl)cc1" ?
OUTPUT: 0.0095
